Target: recombinant human GREM1 (hGREM1-His; C-terminal 10His tagged, R&D, #5190-GR) (human) (UniProt O60565)
Sequence (O60565 other isoform, or with tags, fused parts or gaps limits assumed, form in doubt): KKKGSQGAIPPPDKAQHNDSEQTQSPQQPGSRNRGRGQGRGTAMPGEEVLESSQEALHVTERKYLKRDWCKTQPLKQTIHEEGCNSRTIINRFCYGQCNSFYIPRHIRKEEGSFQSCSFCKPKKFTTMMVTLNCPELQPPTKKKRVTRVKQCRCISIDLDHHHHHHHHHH
Assay: BLI Octet, captured mAb, 100 nM GREM1 without vs with 5 uM heparin
Param threshold (0.1 nm) applies to Reduction in Signal from Heparin at 30 sec; output label 1 when value >= threshold, label 0 when value < threshold.

{"Binder": "H4H6252P (antibody, human IgG4, V domains shown) VH: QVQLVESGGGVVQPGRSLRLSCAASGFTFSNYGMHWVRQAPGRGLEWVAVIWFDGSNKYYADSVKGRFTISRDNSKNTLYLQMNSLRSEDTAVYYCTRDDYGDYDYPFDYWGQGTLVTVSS VL: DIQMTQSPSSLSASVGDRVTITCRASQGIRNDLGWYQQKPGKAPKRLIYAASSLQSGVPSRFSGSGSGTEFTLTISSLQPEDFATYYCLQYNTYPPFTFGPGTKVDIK", "Category Label": "label 1"}
{"Binder": "H4H6232P (antibody, human IgG4, V domains shown) VH: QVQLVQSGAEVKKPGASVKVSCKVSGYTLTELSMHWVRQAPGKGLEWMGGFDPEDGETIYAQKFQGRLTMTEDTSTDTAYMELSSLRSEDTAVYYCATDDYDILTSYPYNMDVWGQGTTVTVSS VL: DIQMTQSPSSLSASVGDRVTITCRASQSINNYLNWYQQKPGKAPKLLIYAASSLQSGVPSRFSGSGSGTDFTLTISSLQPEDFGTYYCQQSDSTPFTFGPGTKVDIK", "Category Label": "label 1"}
{"Binder": "H4H6250P (antibody, human IgG4, V domains shown) VH: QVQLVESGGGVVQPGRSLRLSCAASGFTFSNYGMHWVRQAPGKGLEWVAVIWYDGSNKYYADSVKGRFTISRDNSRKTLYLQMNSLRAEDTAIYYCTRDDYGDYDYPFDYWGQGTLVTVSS VL: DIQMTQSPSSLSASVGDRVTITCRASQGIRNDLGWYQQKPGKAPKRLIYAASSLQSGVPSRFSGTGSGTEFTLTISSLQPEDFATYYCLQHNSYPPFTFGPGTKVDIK", "Category Label": "label 1"}
{"Binder": "H4H6245P (antibody, human IgG4, V domains shown) VH: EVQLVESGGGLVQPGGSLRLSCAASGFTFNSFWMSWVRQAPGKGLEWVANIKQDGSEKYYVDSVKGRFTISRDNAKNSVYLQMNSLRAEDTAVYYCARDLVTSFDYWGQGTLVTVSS VL: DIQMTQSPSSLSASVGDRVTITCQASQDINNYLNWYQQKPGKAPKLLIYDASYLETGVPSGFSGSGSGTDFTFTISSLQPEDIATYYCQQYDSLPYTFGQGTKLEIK", "Category Label": "label 1"}
{"Binder": "H4H2892N (antibody, human IgG4, V domains shown) VH: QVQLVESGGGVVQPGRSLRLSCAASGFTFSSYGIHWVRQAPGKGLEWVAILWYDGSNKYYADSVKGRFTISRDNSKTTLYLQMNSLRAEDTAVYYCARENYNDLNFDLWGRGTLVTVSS VL: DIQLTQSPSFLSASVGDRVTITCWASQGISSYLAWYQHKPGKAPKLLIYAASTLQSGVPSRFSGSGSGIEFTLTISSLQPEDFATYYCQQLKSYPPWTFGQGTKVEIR", "Category Label": "label 0"}
{"Binder": "H4H2783N2 (antibody, human IgG4, V domains shown) VH: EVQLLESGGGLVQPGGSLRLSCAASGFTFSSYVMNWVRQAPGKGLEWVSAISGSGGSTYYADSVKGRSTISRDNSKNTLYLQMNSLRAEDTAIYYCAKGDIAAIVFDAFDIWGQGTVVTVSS VL: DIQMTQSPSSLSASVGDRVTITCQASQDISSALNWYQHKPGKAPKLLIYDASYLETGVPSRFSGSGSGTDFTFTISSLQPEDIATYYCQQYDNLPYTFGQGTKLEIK", "Category Label": "label 1"}

Is reported Reduction in Signal from Heparin at 30 sec greater than or equal to 0.1 nm here: H4H6248P (antibody, human IgG4, V domains shown) VH: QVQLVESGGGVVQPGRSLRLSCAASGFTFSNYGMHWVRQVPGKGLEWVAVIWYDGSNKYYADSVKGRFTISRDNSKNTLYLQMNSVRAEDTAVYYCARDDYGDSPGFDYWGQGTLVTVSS VL: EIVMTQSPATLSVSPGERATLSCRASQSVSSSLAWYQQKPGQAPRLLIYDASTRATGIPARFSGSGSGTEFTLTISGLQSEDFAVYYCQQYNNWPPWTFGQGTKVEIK
label 1

Is reported Reduction in Signal from Heparin at 30 sec greater than or equal to 0.1 nm here: H4H2889N (antibody, human IgG4, V domains shown) VH: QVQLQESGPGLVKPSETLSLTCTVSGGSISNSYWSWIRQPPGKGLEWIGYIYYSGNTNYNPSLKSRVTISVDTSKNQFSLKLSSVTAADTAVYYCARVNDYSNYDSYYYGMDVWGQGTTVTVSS VL: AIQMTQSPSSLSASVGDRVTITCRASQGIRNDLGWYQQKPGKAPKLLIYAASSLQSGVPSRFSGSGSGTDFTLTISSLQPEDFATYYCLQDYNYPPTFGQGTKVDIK
label 1

Is reported Reduction in Signal from Heparin at 30 sec greater than or equal to 0.1 nm here: H4H6246P (antibody, human IgG4, V domains shown) VH: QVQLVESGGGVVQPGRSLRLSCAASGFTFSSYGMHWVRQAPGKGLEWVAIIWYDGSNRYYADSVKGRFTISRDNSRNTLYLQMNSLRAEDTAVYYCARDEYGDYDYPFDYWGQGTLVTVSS VL: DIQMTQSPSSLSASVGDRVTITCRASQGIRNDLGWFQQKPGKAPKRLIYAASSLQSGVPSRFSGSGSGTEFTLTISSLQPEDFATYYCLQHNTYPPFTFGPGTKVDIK
label 1

Is reported Reduction in Signal from Heparin at 30 sec greater than or equal to 0.1 nm here: H4H6269P (antibody, human IgG4, V domains shown) VH: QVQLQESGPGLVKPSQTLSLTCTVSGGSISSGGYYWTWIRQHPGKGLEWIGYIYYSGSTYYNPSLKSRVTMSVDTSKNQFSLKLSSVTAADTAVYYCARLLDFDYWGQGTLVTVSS VL: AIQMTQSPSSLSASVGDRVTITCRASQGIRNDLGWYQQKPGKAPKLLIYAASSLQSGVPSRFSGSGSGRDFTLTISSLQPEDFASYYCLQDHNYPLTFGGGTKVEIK
label 0

Is reported Reduction in Signal from Heparin at 30 sec greater than or equal to 0.1 nm here: H4H6240P (antibody, human IgG4, V domains shown) VH: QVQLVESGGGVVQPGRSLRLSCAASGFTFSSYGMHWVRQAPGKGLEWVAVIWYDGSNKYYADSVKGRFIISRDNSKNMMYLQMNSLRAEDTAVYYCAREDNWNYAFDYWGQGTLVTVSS VL: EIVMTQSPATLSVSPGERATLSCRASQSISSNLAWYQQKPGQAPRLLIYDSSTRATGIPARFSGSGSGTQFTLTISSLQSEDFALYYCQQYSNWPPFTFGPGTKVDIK
label 1
